Reported values of viability, T/C for individual entries
System: NCI-H196 complex spheroid viability
Method notes: Anticancer human tumor NCI-H196 cell line growth inhibition [LSD1];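 also: spheroids exposed to agents for 7 days before readout; 100% = DMSO vehicle control viability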
Test parameters: second compound 3.16 µM; first compound 0.00949 µM; stronger effect = lower value

>  <Compound>
COc1cc(C2c3cc4c(cc3C(OC3OC5COC(C)OC5C(O)C3O)C3COC(=O)C23)OCO4)cc(OC)c1O (stereo not given) + NC1CC1c1ccc(-c2cccc(O)c2)cc1

>  <Assayed target>
NCI-H196 complex spheroid viability

>  <Unit of measure>
%

>  <viability, T/C>
92.8

$$$$
>  <Compound>
Nc1ccn(C2OC(CO)C(O)C2(F)F)c(=O)n1 (stereo not given) + NC1CC1c1ccc(-c2cccc(O)c2)cc1

>  <Assayed target>
NCI-H196 complex spheroid viability

>  <Unit of measure>
%

>  <viability, T/C>
96.4

$$$$
>  <Compound>
CCN(c1cc(-c2ccc(CN3CCOCC3)cc2)cc(C(=O)NCc2c(C)cc(C)[nH]c2=O)c1C)C1CCOCC1 + NC1CCC(NC2CC2c2ccccc2)CC1

>  <Assayed target>
NCI-H196 complex spheroid viability

>  <Unit of measure>
%

>  <viability, T/C>
87.8

$$$$
>  <Compound>
O=C(C=Cc1cccc(S(=O)(=O)Nc2ccccc2)c1)NO + NC1CC1c1ccc(-c2cccc(O)c2)cc1

>  <Assayed target>
NCI-H196 complex spheroid viability

>  <Unit of measure>
%

>  <viability, T/C>
101

$$$$
>  <Compound>
Nc1ncn(C2CC(O)C(CO)S2)c(=O)n1 (stereo not given) + NC1CCC(NC2CC2c2ccccc2)CC1

>  <Assayed target>
NCI-H196 complex spheroid viability

>  <Unit of measure>
%

>  <viability, T/C>
105

$$$$
